# test.protocol: In vitro rat liver S9 stability assay, formation of tafamidis
# Assay type: in vitro ADME
# run.parameters: rat liver S9, 37° C., 1 µM test compound
# Experimental: The test compound was added to liver S9 and incubated at 37° C. in a water bath at a concentration of 1 µM. At each time point (0, 5, 10, 20, 30 and 60 min), stop solution (tolbutamide plus labetalol) was added to precipitate protein and mixed thoroughly. After centrifugation, an aliquot of supernatant was analyzed by LC-MS/MS. The percentage of formation of active agent was calculated at each time point.
Counter-ions that a name gives are not always drawn.

{"columns": ["molecule", "Formation of tafamidis at 60 min"],
 "data": [
  ["O=C(OCCc1ncc[nH]1)c1ccc2nc(-c3cc(Cl)cc(Cl)c3)oc2c1", "B (B is ≥25 to <50%)"],
  ["CC(C)(C)OC(=O)N1CC2CCC1CC2OC(=O)c1ccc2nc(-c3cc(Cl)cc(Cl)c3)oc2c1 (centres unmarked)", "A (A is <25%)"],
  ["CN(C)CCCOC(=O)c1ccc2nc(-c3cc(Cl)cc(Cl)c3)oc2c1", "A (A is <25%)"],
  ["O=C(OCCCN1CCC1)c1ccc2nc(-c3cc(Cl)cc(Cl)c3)oc2c1", "A (A is <25%)"],
  ["O=C(OCCc1cccnc1)c1ccc2nc(-c3cc(Cl)cc(Cl)c3)oc2c1", "D (D is ≥75%)"],
  ["[2H]C([2H])([2H])N(CCCOC(=O)c1ccc2nc(-c3cc(Cl)cc(Cl)c3)oc2c1)C([2H])([2H])[2H]", "A (A is <25%)"],
  ["CN(C)[C@H]1C[C@@H](OC(=O)c2ccc3nc(-c4cc(Cl)cc(Cl)c4)oc3c2)C1", "A (A is <25%)"],
  ["CC(CN1CCOCC1)OC(=O)c1ccc2nc(-c3cc(Cl)cc(Cl)c3)oc2c1 (centres unmarked)", "B (B is ≥25 to <50%)"],
  ["O=C(OCc1ccccn1)c1ccc2nc(-c3cc(Cl)cc(Cl)c3)oc2c1", "D (D is ≥75%)"],
  ["O=C(OCc1ncccn1)c1ccc2nc(-c3cc(Cl)cc(Cl)c3)oc2c1", "C (C is ≥50 to <75%)"],
  ["O=C(OCc1cccnc1)c1ccc2nc(-c3cc(Cl)cc(Cl)c3)oc2c1", "D (D is ≥75%)"],
  ["O=C(OCCN1CCS(=O)(=O)CC1)c1ccc2nc(-c3cc(Cl)cc(Cl)c3)oc2c1", "C (C is ≥50 to <75%)"],
  ["Cc1ncc2n1CCC2OC(=O)c1ccc2nc(-c3cc(Cl)cc(Cl)c3)oc2c1 (centres unmarked) [Compound 159, hydrochloride]", "D (D is ≥75%)"],
  ["Cn1cnc(COC(=O)c2ccc3nc(-c4cc(Cl)cc(Cl)c4)oc3c2)c1", "D (D is ≥75%)"],
  ["CN1CC[C@H](OC(=O)c2ccc3nc(-c4cc(Cl)cc(Cl)c4)oc3c2)C1 [Compound 58, hydrochloride]", "A (A is <25%)"],
  ["CN1CCCC1CCCOC(=O)c1ccc2nc(-c3cc(Cl)cc(Cl)c3)oc2c1 (centres unmarked)", "A (A is <25%)"],
  ["CN1CCCC1COC(=O)c1ccc2nc(-c3cc(Cl)cc(Cl)c3)oc2c1 (centres unmarked)", "C (C is ≥50 to <75%)"]
]}

* * *

# test.protocol: In vitro rat plasma stability assay, formation of tafamidis
# Assay type: in vitro ADME
# run.parameters: 37° C., 2 µM test compound
Structures can show the parent of a compound that is named as a salt.

{"columns": ["compound", "Formation of tafamidis at 120 min"],
 "data": [
  ["CC(COC(=O)c1ccc2nc(-c3cc(Cl)cc(Cl)c3)oc2c1)CN(C)C (stereo not shown)", "A (A is <25%)"],
  ["N[C@@H](Cc1ccc(OC(=O)c2ccc3nc(-c4cc(Cl)cc(Cl)c4)oc3c2)cc1)C(=O)O [Compound 23, hydrochloride]", "A (A is <25%)"],
  ["O=C(NCCCO)c1ccc2nc(-c3cc(Cl)cc(Cl)c3)oc2c1", "A (A is <25%)"],
  ["CC(CCn1ccnc1)OC(=O)c1ccc2nc(-c3cc(Cl)cc(Cl)c3)oc2c1 (stereo not shown)", "C (C is ≥50 to <75%)"],
  ["NCCCOC(=O)c1ccc2nc(-c3cc(Cl)cc(Cl)c3)oc2c1 [Compound 25, hydrochloride]", "A (A is <25%)"],
  ["N#CCN1CCC(OC(=O)c2ccc3nc(-c4cc(Cl)cc(Cl)c4)oc3c2)C1 (stereo not shown)", "C (C is ≥50 to <75%)"]
]}
